All values here come from ChEMBL document CHEMBL1149394.

tested-on: Protein farnesyltransferase (Homo sapiens, UniProt P49354+P49356)
test: Inhibitory activity against farnesyltransferase quantified by SPA assay
Format: protein-complex assay
Listed next: entries and their corresponding log10 IC50.
reported-property: log10 IC50 (log10 of the value in nM)

- compound: "CCCCC(=O)N1CCN(C2c3ccc(Cl)cc3CCc3cc(Br)cnc32)CC1C(=O)NCc1ncc[nH]1 (stereo not drawn)"
  log10 IC50: 1.90
- compound: "CC(=O)CCCCC(=O)N1CCN(C2c3ccc(Cl)cc3CCc3cc(Br)cnc32)CC1C(=O)NCc1cccnc1 (stereo not drawn)"
  log10 IC50: 0.90
- compound: "COC(=O)CCCCC(=O)N1CCN(C2c3ccc(Cl)cc3CCc3cc(Br)cnc32)CC1C(=O)NCc1cccnc1 (stereo not drawn)"
  log10 IC50: 0.90
- compound: "CCCCC(=O)N1CCN(C2c3ccc(Cl)cc3CCc3cc(Br)cnc32)CC1C(=O)Nc1cccnc1 (stereo not drawn)"
  log10 IC50: 1.26
- compound: "O=C(NCc1cccnc1)C1CN(C2c3ccc(Cl)cc3CCc3cc(Br)cnc32)CCN1C(=O)CCC1CCCCC1 (stereo not drawn)"
  log10 IC50: 1.30
- compound: "O=C(NCCCN1CCCC1=O)C1CN(C2c3ccc(Cl)cc3CCc3cc(Br)cnc32)CCN1C(=O)NC1CCCCC1 (stereo not drawn)"
  log10 IC50: 1.15
- compound: "CC(=O)CCC(=O)N1CCN(C2c3ccc(Cl)cc3CCc3cc(Br)cnc32)CC1C(=O)NCc1cccnc1 (stereo not drawn)"
  log10 IC50: 1.04
- compound: "O=C(NCc1cccnc1)C1CN(C2c3ccc(Cl)cc3CCc3cc(Br)cnc32)CCN1C(=O)NCC1CCCCC1 (stereo not drawn)"
  log10 IC50: 1.00

* * *

test: Cmax in mice at 10 mg/kg, po
Type: ADME, organism-based
Parameters: dose 10 mg/kg, route oral
details: mouse, in vivo
reported-property: Cmax

- compound: "O=C(NCCCn1ccnc1)C1CN(C2c3ccc(Cl)cc3CCc3cc(Br)cnc32)CCN1C(=O)NC1CCCCC1 (stereo in doubt; 41b)"
  val: "2550 nM"

* * *

test: Bioavailability in mice
Assay type: ADME, organism-based
details: mouse, in vivo

- compound: "O=C(NCCCn1ccnc1)C1CN(C2c3ccc(Cl)cc3CCc3cc(Br)cnc32)CCN1C(=O)NC1CCCCC1 (stereo in doubt; 41b)"
  unit-label: "%"
  bioavailability: 10.6

* * *

tested-on: Protein farnesyltransferase (Homo sapiens, UniProt P49354+P49356)
test: Inhibitory activity against Ha-Ras processing in COS7 cells
Type: functional, cell-based, COS-7
Listed next: entries and their corresponding IC50.

- compound: "O=C(NCc1cccnc1)C1CN(C2c3ccc(Cl)cc3CCc3cc(Br)cnc32)CCN1C(=O)NC1CC1 (centres undefined)"
  reading-qualifier: "="
  IC50 (nM): 260
- compound: "O=C(O)CCCC(=O)N1CCN(C2c3ccc(Cl)cc3CCc3cc(Br)cnc32)CC1C(=O)NCc1cccnc1 (centres undefined)"
  reading-qualifier: ">"
  IC50 (nM): 200
- compound: "CCCCCC(=O)N1CCN(C2c3ccc(Cl)cc3CCc3cc(Br)cnc32)CC1C(=O)NCc1cccnc1 (centres undefined)"
  reading-qualifier: "="
  IC50 (nM): 75
- compound: "CCCCC(=O)N1CCN(C2c3ccc(Cl)cc3CCc3cc(Br)cnc32)CC1C(=O)NCc1cccnc1 (centres undefined)"
  reading-qualifier: "="
  IC50 (nM): 64

* * *

tested-on: Protein farnesyltransferase (Homo sapiens, UniProt P49354+P49356)
test: Inhibitory activity against farnesyltransferase quantified by SPA assay
Type: protein-complex assay

- compound: "O=C(NCc1cccnc1)C1CN(C2c3ccc(Cl)cc3CCc3cc(Br)cnc32)CCN1C(=O)NC1CCCC1 (stereo unspecified)"
  tested-on: "Protein farnesyltransferase (Homo sapiens, UniProt P49354+P49356)"
  IC50 (µM): 0.014
- compound: "CCCCC(=O)N1CCN(C2c3ccc(Cl)cc3CCc3cc(Br)cnc32)CC1C(=O)NCc1cccnc1 (stereo unspecified)"
  tested-on: "Protein farnesyltransferase (Homo sapiens, UniProt P49354+P49356)"
  IC50 (µM): 0.0057
- compound: "O=C(NCCc1c[nH]cn1)C1CN(C2c3ccc(Cl)cc3CCc3cc(Br)cnc32)CCN1C(=O)NC1CCCCC1 (stereo unspecified)"
  tested-on: "Protein farnesyltransferase (Homo sapiens, UniProt P49354+P49356)"
  IC50 (µM): 0.007
- compound: "O=C(Nc1nncs1)C1CN(C2c3ccc(Cl)cc3CCc3cc(Br)cnc32)CCN1C(=O)NC1CCCCC1 (stereo unspecified)"
  tested-on: "Protein farnesyltransferase (Homo sapiens, UniProt P49354+P49356)"
  IC50 (µM): 0.49
- compound: "O=C(NCc1cccnc1)C1CN(C2c3ccc(Cl)cc3CCc3cc(Br)cnc32)CCN1C(=O)NC1CC1 (stereo unspecified)"
  tested-on: "Protein farnesyltransferase (Homo sapiens, UniProt P49354+P49356)"
  IC50 (µM): 0.051
- compound: "O=C(NCc1cccnc1)C1CN(C2c3ccc(Cl)cc3CCc3cc(Br)cnc32)CCN1C(=O)C1CCCC1 (stereo unspecified)"
  tested-on: "Protein farnesyltransferase (Homo sapiens, UniProt P49354+P49356)"
  IC50 (µM): 0.017

* * *

tested-on: Protein farnesyltransferase (Homo sapiens, UniProt P49354+P49356)
test: Inhibitory activity against farnesyltransferase quantified by SPA assay
Type: protein-complex assay
pIC50: −log10 of the molar value.

- compound: "Cc1ccc(CNC(=O)C2CN(C3c4ccc(Cl)cc4CCc4cc(Br)cnc43)CCN2C(=O)NC2CCCCC2)cn1 (stereo unspecified)"
  pIC50: 7.21
- compound: "O=C(NCc1cccnc1)C1CN(C2c3ccc(Cl)cc3CCc3cc(Br)cnc32)CCN1C(=O)NC1CCCCCC1 (stereo unspecified)"
  pIC50: 8.04
- compound: "CC(C)(C)CC(=O)N1CCN(C2c3ccc(Cl)cc3CCc3cc(Br)cnc32)CC1C(=O)NCc1cccnc1 (stereo unspecified)"
  pIC50: 7.92
- compound: "CCCNC(=O)N1CCN(C2c3ccc(Cl)cc3CCc3cc(Br)cnc32)CC1C(=O)NCc1cccnc1 (stereo unspecified)"
  pIC50: 7.72
- compound: "CCCCNC(=O)N1CCN(C2c3ccc(Cl)cc3CCc3cc(Br)cnc32)CC1C(=O)NCc1cccnc1 (stereo unspecified)"
  pIC50: 8.04
- compound: "O=C(NCCCn1ccnc1)C1CN(C2c3ccc(Cl)cc3CCc3cc(Br)cnc32)CCN1C(=O)NC1CCCCC1 (stereo in doubt; 41)"
  pIC50: 8.35
- compound: "O=C(O)CCCC(=O)N1CCN(C2c3ccc(Cl)cc3CCc3cc(Br)cnc32)CC1C(=O)NCc1cccnc1 (stereo unspecified)"
  pIC50: 8.15
- compound: "COCCC(=O)N1CCN(C2c3ccc(Cl)cc3CCc3cc(Br)cnc32)CC1C(=O)NCc1cccnc1 (stereo unspecified)"
  pIC50: 7.70
- compound: "Cc1noc(C)c1CNC(=O)C1CN(C2c3ccc(Cl)cc3CCc3cc(Br)cnc32)CCN1C(=O)NC1CCCCC1 (stereo unspecified)"
  pIC50: 6.12
- compound: "O=C(NCCCc1c[nH]cn1)C1CN(C2c3ccc(Cl)cc3CCc3cc(Br)cnc32)CCN1C(=O)NC1CCCCC1 (stereo unspecified)"
  pIC50: 7.89
- compound: "CCCCCC(=O)N1CCN(C2c3ccc(Cl)cc3CCc3cc(Br)cnc32)CC1C(=O)NCc1cccnc1 (stereo unspecified)"
  pIC50: 8.10
- compound: "CC(C)(C)OC(=O)N1CCN(C2c3ccc(Cl)cc3CCc3cc(Br)cnc32)CC1C(=O)NCc1cccnc1 (stereo unspecified)"
  pIC50: 7.66
- compound: "O=C(NCc1cccnc1)C1CN(C2c3ccc(Cl)cc3CCc3cc(Br)cnc32)CCN1C(=O)C1CCCCCC1 (stereo unspecified)"
  pIC50: 7.92
- compound: "CN(C)C(=O)CCC(=O)N1CCN(C2c3ccc(Cl)cc3CCc3cc(Br)cnc32)CC1C(=O)NCc1cccnc1 (stereo unspecified)"
  pIC50: 7.89
- compound: "O=C(NCCCn1ccnc1)C1CN(C2c3ccc(Cl)cc3CCc3cc(Br)cnc32)CCN1C(=O)NC1CCCCC1 (stereo in doubt; 41b)"
  pIC50: 8.82
- compound: "CC(C)CC(=O)N1CCN(C2c3ccc(Cl)cc3CCc3cc(Br)cnc32)CC1C(=O)NCc1cccnc1 (stereo unspecified)"
  pIC50: 8.14

* * *

tested-on: Protein farnesyltransferase (Homo sapiens, UniProt P49354+P49356)
test: Inhibitory activity against Ha-Ras processing in COS7 cells
Format: functional, cell-based, COS-7
pIC50: −log10 of the molar value.

- compound: "CC(C)CC(=O)N1CCN(C2c3ccc(Cl)cc3CCc3cc(Br)cnc32)CC1C(=O)NCc1cccnc1 (stereo not drawn)"
  reading-qualifier: "="
  pIC50: 7.30
- compound: "CCCCC(=O)N1CCN(C2c3ccc(Cl)cc3CCc3cc(Br)cnc32)CC1C(=O)Nc1cccnc1 (stereo not drawn)"
  reading-qualifier: "="
  pIC50: 7.00
- compound: "CCCCC(=O)N1CCN(C2c3ccc(Cl)cc3CCc3cc(Br)cnc32)CC1C(=O)NCc1c[nH]cn1 (stereo not drawn)"
  reading-qualifier: "="
  pIC50: 6.68
- compound: "O=C(NCCCn1ccnc1)C1CN(C2c3ccc(Cl)cc3CCc3cc(Br)cnc32)CCN1C(=O)NC1CCCCC1 (stereo in doubt; 41)"
  reading-qualifier: "="
  pIC50: 8.38
- compound: "CC(=O)CCC(=O)N1CCN(C2c3ccc(Cl)cc3CCc3cc(Br)cnc32)CC1C(=O)NCc1cccnc1 (stereo not drawn)"
  reading-qualifier: "="
  pIC50: 7.33
- compound: "Cn1cnc(CCNC(=O)C2CN(C3c4ccc(Cl)cc4CCc4cc(Br)cnc43)CCN2C(=O)NC2CCCCC2)c1 (stereo not drawn)"
  reading-qualifier: "="
  pIC50: 7.04
- compound: "CCOCC(=O)N1CCN(C2c3ccc(Cl)cc3CCc3cc(Br)cnc32)CC1C(=O)NCc1cccnc1 (stereo not drawn)"
  reading-qualifier: "="
  pIC50: 6.80
- compound: "Cc1ccc(CNC(=O)C2CN(C3c4ccc(Cl)cc4CCc4cc(Br)cnc43)CCN2C(=O)NC2CCCCC2)cn1 (stereo not drawn)"
  reading-qualifier: "="
  pIC50: 6.26
- compound: "CCCCC(=O)N1CCN(C2c3ccc(Cl)cc3CCc3cc(Br)cnc32)CC1C(=O)NCc1ccc[n+]([O-])c1 (stereo not drawn)"
  reading-qualifier: "<"
  pIC50: 6.70
- compound: "O=C(NCCCc1c[nH]cn1)C1CN(C2c3ccc(Cl)cc3CCc3cc(Br)cnc32)CCN1C(=O)NC1CCCCC1 (stereo not drawn)"
  reading-qualifier: "="
  pIC50: 8.01
- compound: "CC(C)CNC(=O)N1CCN(C2c3ccc(Cl)cc3CCc3cc(Br)cnc32)CC1C(=O)NCc1cccnc1 (stereo not drawn)"
  reading-qualifier: "="
  pIC50: 7.28
- compound: "O=C(NCCCn1ccnc1)C1CN(C2c3ccc(Cl)cc3CCc3cc(Br)cnc32)CCN1C(=O)NC1CCCCC1 (stereo in doubt; 41a)"
  reading-qualifier: "="
  pIC50: 8.92
- compound: "O=C(NCc1cccnc1)C1CN(C2c3ccc(Cl)cc3CCc3cc(Br)cnc32)CCN1C(=O)NCC1CCCCC1 (stereo not drawn)"
  reading-qualifier: "="
  pIC50: 7.28
- compound: "CCCCC(=O)N1CCN(C2c3ccc(Cl)cc3CCc3cc(Br)cnc32)CC1C(=O)Nc1cnccn1 (stereo not drawn)"
  reading-qualifier: "="
  pIC50: 6.24
- compound: "CCCCC(=O)N1CCN(C2c3ccc(Cl)cc3CCc3cc(Br)cnc32)CC1C(=O)NCCc1c[nH]cn1 (stereo not drawn)"
  reading-qualifier: "="
  pIC50: 7.22
- compound: "O=C(NCc1cccnc1)C1CN(C2c3ccc(Cl)cc3CCc3cc(Br)cnc32)CCN1C(=O)NC1CCCCC1 (stereo not drawn)"
  reading-qualifier: "="
  pIC50: 8.07
- compound: "CCCCNC(=O)N1CCN(C2c3ccc(Cl)cc3CCc3cc(Br)cnc32)CC1C(=O)NCc1cccnc1 (stereo not drawn)"
  reading-qualifier: "="
  pIC50: 7.35
- compound: "COC(=O)CCCCC(=O)N1CCN(C2c3ccc(Cl)cc3CCc3cc(Br)cnc32)CC1C(=O)NCc1cccnc1 (stereo not drawn)"
  reading-qualifier: "="
  pIC50: 7.21
